PI4KIIIβ (PI4KB, PI4K beta) (Homo sapiens) data, read-out IC50
Sequence (Q9UBF8 whole entry): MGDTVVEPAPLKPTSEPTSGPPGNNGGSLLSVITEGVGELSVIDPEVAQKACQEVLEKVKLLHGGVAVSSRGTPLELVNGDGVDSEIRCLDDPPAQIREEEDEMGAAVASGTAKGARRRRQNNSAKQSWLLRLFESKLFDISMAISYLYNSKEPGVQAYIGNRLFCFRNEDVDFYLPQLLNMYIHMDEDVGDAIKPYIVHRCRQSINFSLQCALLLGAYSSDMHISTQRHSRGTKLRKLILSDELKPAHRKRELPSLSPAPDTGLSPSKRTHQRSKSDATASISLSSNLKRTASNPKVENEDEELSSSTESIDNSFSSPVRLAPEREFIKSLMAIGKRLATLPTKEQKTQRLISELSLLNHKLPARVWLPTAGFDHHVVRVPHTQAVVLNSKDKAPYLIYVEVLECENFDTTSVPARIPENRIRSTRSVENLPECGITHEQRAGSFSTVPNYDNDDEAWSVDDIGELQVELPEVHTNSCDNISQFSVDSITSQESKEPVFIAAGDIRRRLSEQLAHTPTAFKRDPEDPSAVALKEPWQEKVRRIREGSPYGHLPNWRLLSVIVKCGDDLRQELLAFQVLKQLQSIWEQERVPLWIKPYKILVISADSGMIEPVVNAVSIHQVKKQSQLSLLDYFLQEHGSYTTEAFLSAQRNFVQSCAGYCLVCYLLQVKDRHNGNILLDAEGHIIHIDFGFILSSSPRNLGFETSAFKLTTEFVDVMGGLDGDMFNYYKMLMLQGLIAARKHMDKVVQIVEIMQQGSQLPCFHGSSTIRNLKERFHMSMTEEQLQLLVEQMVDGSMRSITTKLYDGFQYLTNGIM
measured.quantity: IC50 (nM)

[A] Cc1cccc(NC(=O)N2CCN(c3nc(N)nc4sc(-c5cccnc5)nc34)CC2)c1 [formula (2)]
[B] Nc1nc(N2CCN(C(=O)COc3ccc(F)cc3)CC2)c2nc(-c3cccnc3)sc2n1 [formula (4)]
Field: entry with larger IC50 (options A / B ). Indicate your choice by writing its label. B
(B: 21.8 nM, A: 14.3 nM)

---

Tested on: murine splenocytes stimulated with α-CD3 antibody
protocol.text: Cytokine secretion after α-CD3 stimulation
Assay type: cell-based, Balb/C mice
cond: Mus musculus, Splenocyte, 24 h, read-out: IC50 for inhibition of IL2 release
measured.quantity: IC50 (nM)
Lab book: enter the figure in nM, no units written.

Request: IC50, test system murine splenocytes stimulated with α-CD3 antibody, entry Nc1nc(N2CCN(C(=O)COc3ccc(Cl)cc3)CC2)c2nc(-c3cccnc3)sc2n1 [formula (1)] 76
